target: MR (Homo sapiens, UniProt P08235); experiment: Cell-Based Reporter Assay (Gal4 DBD-MR LBD luciferase reporter, antagonist mode); details: antagonist mode vs aldosterone at EC80; transfected human liver cells (Huh7); luciferase readout; Examples 3, 6, 12 and 13 tested in analogous format with minor variations
pIC50: −log10 of the molar value.
Label not fulfilled if pIC50 falls below 8; label fulfilled in every other case.

smiles.representation	label.value
Cc1cc(C2=NN(c3ccc(C#N)c(C)n3)[C@@H](C3CCCC3)C2)ccc1C#N	not fulfilled
Cc1nc(N2N=C(c3cccc(C(N)=O)c3)C[C@@H]2C2CCCC2)ccc1C#N	not fulfilled
Cc1nc(N2N=C(c3ccc(S(N)(=O)=O)cc3)C[C@@H]2C2CCCC2)ccc1C#N	not fulfilled
Cc1nc(N2N=C(c3ccc4ncn(C)c(=O)c4c3)C[C@@H]2C2CCCC2)ccc1C#N	fulfilled
COc1cccc(C2=NN(c3ccc(C#N)c(C)n3)[C@@H](C3CCCC3)C2)c1	not fulfilled
COc1cc(C2=NN(c3ccc(C#N)c(C)n3)[C@@H](C3CCCC3)C2)ccc1C#N	not fulfilled

* * *

The following compounds are shown together with reported pIC50 values.
Molecular target: MR (Homo sapiens)
Sequence (P08235 726-964 limits assumed): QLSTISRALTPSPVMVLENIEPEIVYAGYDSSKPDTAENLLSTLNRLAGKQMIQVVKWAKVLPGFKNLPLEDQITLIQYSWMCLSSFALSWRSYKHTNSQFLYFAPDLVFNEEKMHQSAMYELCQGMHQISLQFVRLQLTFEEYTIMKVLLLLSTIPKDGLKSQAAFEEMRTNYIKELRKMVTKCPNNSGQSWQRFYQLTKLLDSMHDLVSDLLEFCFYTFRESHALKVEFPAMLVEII
Experiment: Cell-Based Reporter Assay (Gal4 DBD-MR LBD luciferase reporter, antagonist mode)
Details: antagonist mode vs aldosterone at EC80; transfected human liver cells (Huh7); luciferase readout; Examples 3, 6, 12 and 13 tested in analogous format with minor variations
pIC50: −log10 of the molar value.
endpoint.label: pIC50

smiles.representation	sign	reported.measurement
COc1cc(C2=NN(c3ccc(C#N)c(Cl)c3)[C@@H](C3CCCC3)C2)ncc1C(=O)O	=	5.70
Cc1nc(N2N=C(c3cccc(OC(C)C)n3)C[C@@H]2C2CCCC2)ccc1C#N	=	6.77
Cc1nc(N2N=C(c3ccc4c(c3)CNC4=O)C[C@@H]2C2CCCC2)ccc1C#N	=	8.01
COC(=O)c1ccc(C2=NN(c3ccc(C#N)c(C)n3)[C@@H](C3CCCC3)C2)cc1	<	5.65

* * *

Target: MR (Homo sapiens, UniProt P08235)
Sequence (P08235 726-964 limits assumed): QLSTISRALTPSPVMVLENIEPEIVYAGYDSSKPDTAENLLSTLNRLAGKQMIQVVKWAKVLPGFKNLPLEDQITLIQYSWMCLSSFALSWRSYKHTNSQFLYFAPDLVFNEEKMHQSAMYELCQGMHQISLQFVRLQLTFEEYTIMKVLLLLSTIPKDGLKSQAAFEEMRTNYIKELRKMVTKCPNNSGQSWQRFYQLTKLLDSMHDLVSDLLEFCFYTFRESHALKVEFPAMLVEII
Experiment: Cell-Based Reporter Assay (Gal4 DBD-MR LBD luciferase reporter, antagonist mode)
Settings: antagonist mode vs aldosterone at EC80; transfected human liver cells (Huh7); luciferase readout; Examples 3, 6, 12 and 13 tested in analogous format with minor variations
pIC50: −log10 of the molar value.
Label rule not met if pIC50 falls below 7; label rule met in every other case.

compound	label.value
Cc1nc(N2N=C(c3ccc4c(c3)C(=O)NC4)C[C@@H]2C2CCCC2)ccc1C#N [Example 31]	rule met
Cc1nc(N2N=C(c3cc(F)c(O)c(F)c3)C[C@@H]2C2CCCC2)ccc1C#N [Example 61]	rule not met
COc1ccc(C2=NN(c3ccc(C#N)c(C)n3)[C@@H](C3CCCC3)C2)cc1C(=O)O [Example 36]	rule not met
Cc1cc(C2=NN(c3ccc(C#N)c(C)n3)[C@@H](C3CCCC3)C2)ccc1C(N)=O [Example 24]	rule met
CCOc1nc(C2=NN(c3ccc(C#N)c(C)c3)[C@@H](C3CCCC3)C2)ccc1C(N)=O [Example 55]	rule met
Cc1nc(N2N=C(c3ccc4c(c3)CCC(=O)N4)C[C@@H]2C2CCCC2)ccc1C#N [Example 45]	rule met
Cc1nc(N2N=C(c3ccc(NS(C)(=O)=O)cc3)C[C@@H]2C2CCCC2)ccc1C#N [Example 25]	rule met
CCOc1cc(C2=NN(c3ccc(C#N)c(C)n3)[C@@H](C3CCCC3)C2)ccc1C(N)=O [Example 42]	rule met
COc1cc(C(=O)O)ccc1C1=NN(c2ccc(C#N)c(C)n2)[C@@H](C2CCCC2)C1 [Example 39]	rule met
Cc1nc(N2N=C(c3ccc(C(N)=O)cc3)C[C@@H]2C2CCCC2)ccc1C#N [Example 16]	rule met
CCS(=O)(=O)c1ccc(C2=NN(c3ccc(C#N)c(C)n3)[C@@H](C3CCCC3)C2)cc1 [Example 22]	rule met
Cc1nc(N2N=C(c3ccc4c(c3)CNC(=O)N4)C[C@@H]2C2CCCC2)ccc1C#N [Example 47]	rule met
COC(=O)c1ccc(C2=NN(c3ccc(C#N)c(C)c3)C(C3CCCC3)C2)nc1OC (stereo not shown) [Example 1]	rule met

* * *

target: MR (Homo sapiens, UniProt P08235); construct: expressed in transfected cells; host or cells: Huh7 human liver cells, transient transfection; test: Cell-Based Reporter Assay (Gal4 DBD-MR LBD luciferase reporter, antagonist mode); conditions: antagonist mode vs aldosterone at EC80; transfected human liver cells (Huh7); luciferase readout; Examples 3, 6, 12 and 13 tested in analogous format with minor variations;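 further: cells co-transfected with a Gal4 response element luciferase plasmid, compound exposure overnight before lysis and luminescence counting, IC50 reflects reduced aldosterone-stimulated reporter signal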
Hi! Just check whether IC50 is below 60 nM. Below gives yes (1), equal or above gives no (0).

smiles.representation	label.value
COc1cc(C2=NN(c3ccc(C#N)c(C)n3)[C@@H](C3CCCC3)C2)ccc1O	no (0)
COc1cc(C2=NN(c3ccc(C#N)c(C)n3)[C@@H](C3CCCC3)C2)ccc1CC(=O)O	no (0)
COc1cccc(C2=NN(c3ccc(C#N)c(C)n3)[C@@H](C3CCCC3)C2)n1	no (0)
CC(=O)Nc1cccc(C2=NN(c3ccc(C#N)c(C)n3)[C@@H](C3CCCC3)C2)n1	no (0)
Cc1cc(C2=NN(c3ccc(C#N)c(C)n3)[C@@H](C3CCCC3)C2)cc(C)c1O	no (0)
Cc1nc(N2N=C(c3cccc(S(C)(=O)=O)c3)C[C@@H]2C2CCCC2)ccc1C#N	no (0)
COC(=O)c1ccc(C2=NN(c3ccc(C#N)c(C)c3)[C@@H](C3CCCC3)C2)nc1OC	yes (1)
Cc1nc(N2N=C(c3ccc4c(c3)C(C)(C)OC(=O)N4)C[C@@H]2C2CCCC2)ccc1C#N	yes (1)

* * *

The following compounds are shown together with reported IC50 values.
Biological target: MR (Homo sapiens, UniProt P08235)
Sequence (P08235 726-964 limits assumed): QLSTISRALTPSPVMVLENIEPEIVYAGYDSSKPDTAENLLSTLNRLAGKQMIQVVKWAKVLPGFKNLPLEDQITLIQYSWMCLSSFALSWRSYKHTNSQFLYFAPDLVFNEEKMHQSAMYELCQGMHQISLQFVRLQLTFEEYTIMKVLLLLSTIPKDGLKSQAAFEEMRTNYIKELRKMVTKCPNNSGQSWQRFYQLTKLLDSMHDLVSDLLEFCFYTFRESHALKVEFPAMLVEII
Test: Cell-Based Reporter Assay (Gal4 DBD-MR LBD luciferase reporter, antagonist mode)
Conditions: antagonist mode vs aldosterone at EC80; transfected human liver cells (Huh7); luciferase readout; Examples 3, 6, 12 and 13 tested in analogous format with minor variations

compound	unit.label	IC50
CCOc1nc(C2=NN(c3ccc(C#N)c(C)n3)[C@@H](C3CCCC3)C2)ccc1C(=O)O	nM	8.2
COC(=O)c1cc(C2=NN(c3ccc(C#N)c(C)n3)[C@@H](C3CCCC3)C2)ccc1S(C)(=O)=O	nM	8.9
CCOc1cc(C2=NN(c3ccc(C#N)c(C)n3)[C@@H](C3CCCC3)C2)ccc1C(=O)O	nM	9.1
Cc1nc(N2N=C(c3ccc4c(c3)OCC(=O)N4)C[C@@H]2C2CCCC2)ccc1C#N	nM	42
Cc1nc(N2N=C(c3ccc4c(c3)NC(=O)CO4)C[C@@H]2C2CCCC2)ccc1C#N	nM	10.8
COc1cc(C2=NN(c3ccc(C#N)c(C)n3)[C@@H](C3CCCC3)C2)ccc1C(N)=O	nM	5.2
COc1cc(N2N=C(c3ccc(C(=O)O)c(OC)n3)CC2C2CCCC2)ccc1C#N (centres unmarked)	nM	9
Cc1nc(N2N=C(c3ccc(S(C)(=O)=O)cc3)C[C@@H]2C2CCCC2)ccc1C#N	nM	8.4

* * *

molecular target: MR (Homo sapiens); assay: Cell-Based Reporter Assay (Gal4 DBD-MR LBD luciferase reporter, antagonist mode); details: antagonist mode vs aldosterone at EC80; transfected human liver cells (Huh7); luciferase readout; Examples 3, 6, 12 and 13 tested in analogous format with minor variations
pIC50: −log10 of the molar value.
The following molecules are shown together with reported pIC50 values.
endpoint.label: pIC50

molecule	tgt	reported.measurement
COc1nc(C2=NN(c3ccc(C#N)c(C)c3)C(C3CC(F)(F)C3)C2)ccc1C(=O)O (stereo not drawn) [Example 70]	MR (Homo sapiens)	6.83
COC(=O)c1ccc(C2=NN(c3ccc(C#N)c(C)n3)[C@@H](C3CCCC3)C2)c(OC)c1 [Example 38]	MR (Homo sapiens)	7.09
Cc1nc(N2N=C(c3ccc(O)c(F)c3)C[C@@H]2C2CCCC2)ccc1C#N [Example 62]	MR (Homo sapiens)	7.03
